experiment: Urinary excretion study in rats after oral NS, SF or CNS (LC–MS/MS)
Assay type: in vivo
stated.conditions: rat urine, oral NS 60 mg/kg, 72 h
Description: The animal room was set at constant temperature of 20 ± 2 °C with humidity of 50 ± 20% and 12/12 h light/dark cycle. Eighteen male rats were fasted for 12 h before starting the experiment. […] The urine volume was recorded and the dry feces were measured for each collection period. […] The accumulative excretion percentage was calculated for each analyte as follows. […]
The compounds listed here are annotated with their Accumulative excretion amount.
Enter your answer as a number in µg; do not include the unit.

Solved cases below.
>>> endpoint_result("CC(C)=CCC[C@](C)(O[C@@H]1O[C@H](CO)[C@@H](O)[C@H](O)[C@H]1O)[C@H]1CC[C@]2(C)[C@@H]1[C@H](O)C[C@@H]1[C@@]3(C)CC[C@H](O)C(C)(C)[C@@H]3[C@@H](O[C@@H]3O[C@H](CO)[C@@H](O)[C@H](O)[C@H]3O[C@@H]3O[C@@H](C)[C@H](O)[C@@H](O)[C@H]3O)C[C@]12C [ginsenoside Re]")
0.809
>>> endpoint_result("CC(C)=CCC[C@](C)(O[C@@H]1O[C@H](CO[C@@H]2O[C@H](CO)[C@@H](O)[C@H](O)[C@H]2O)[C@@H](O)[C@H](O)[C@H]1O)[C@H]1CC[C@]2(C)[C@@H]1[C@H](O)C[C@@H]1[C@@]3(C)CC[C@H](O[C@@H]4O[C@H](CO)[C@@H](O)[C@H](O)[C@H]4O[C@@H]4O[C@H](CO)[C@@H](O)[C@H](O)[C@H]4O)C(C)(C)[C@@H]3CC[C@]12C [ginsenoside Rb1]")
2.506
>>> endpoint_result("CC(C)=CCC[C@](C)(O[C@@H]1O[C@H](CO)[C@@H](O)[C@H](O)[C@H]1O)[C@H]1CC[C@]2(C)[C@@H]1[C@H](O)C[C@@H]1[C@@]3(C)CC[C@H](O)C(C)(C)[C@@H]3[C@@H](O[C@@H]3O[C@H](CO)[C@@H](O)[C@H](O)[C@H]3O)C[C@]12C [ginsenoside Rg1]")
16.417

Lab note: next compound to report on.
I would be grateful if you could share the reported Accumulative excretion amount for CC(C)=CCC[C@](C)(O[C@@H]1O[C@H](CO)[C@@H](O)[C@H](O)[C@H]1O)[C@H]1CC[C@]2(C)[C@@H]1[C@H](O)C[C@@H]1[C@@]3(C)CC[C@H](O[C@@H]4O[C@H](CO)[C@@H](O)[C@H](O)[C@H]4O[C@@H]4O[C@H](CO)[C@@H](O)[C@H](O)[C@H]4O)C(C)(C)[C@@H]3CC[C@]12C [ginsenoside Rd] . 0.372
